Molecular target: Aβ1-40 (Homo sapiens, UniProt P05067)
Construct: (β-AP1-40) was obtained commercially from Bachem (Torrance, Calif.); purchased Bachem (Torrance, Calif.)
Sequence (P05067 672-711): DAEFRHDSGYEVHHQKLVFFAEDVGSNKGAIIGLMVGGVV
Assay: Nucleation assay (turbidity, A405 nm)
Type: biochemical
Conditions: Table V; 100 mole % inhibitor relative to Aβ1-40
Primed or numbered codes have the meaning given here. * marks the point of attachment. Adp″ = aminoethyldibenzofuranylpropanoic acid, NCCc1cccc2c1oc1c(CCC(=O)*)cccc12; NMeV = CN[C@H](C(=O)O)C(C)C; CA = not defined here
endpointName: ΔLag (ratio of lag time with test compound to lag time of control)
When you answer, write just the number.

>  <substance>
PPI-403: h-DDIII(N-Me-Val)DLL(Adp)-HQKLVFF-oh ({H2N-Asp-Asp-Ile-Ile-Ile-NMeV-Asp-Leu-Leu-Adp″}-HQKLVFF-OH)

>  <dataValue>
1.4

$$$$
>  <substance>
PPI-395: CA-FFA-oh ({CA}-Phe-Phe-Ala-OH; reading uncertain; also: printed as CA-FFA-oh)

>  <dataValue>
1.0

$$$$
>  <substance>
PPI-438: CA-GFF-oh ({CA}-Gly-Phe-Phe-OH; reading uncertain; also: printed as PPI-438: CA-GFF-oh)

>  <dataValue>
1.0

$$$$
>  <substance>
PPI-394: CA-VFF-oh ({CA}-Val-Phe-Phe-OH; reading uncertain; also: printed as CA-VFF-oh)

>  <dataValue>
1.8

$$$$

Here is another substance to look at.
// query ΔLag (ratio of lag time with test compound to lag time of control) value for entry PPI-429: CA-FFV-oh ({CA}-Phe-Phe-Val-OH; reading uncertain; also: printed as PPI-429: CA-FFV-oh) 2.2

====

Molecular target: Aβ1-40 (Homo sapiens, UniProt P05067)
Construct: (β-AP1-40) was obtained commercially from Bachem (Torrance, Calif.); purchased Bachem (Torrance, Calif.)
Experiment: Nucleation assay (turbidity, A405 nm)
Assay type: biochemical
Details: Table IV; 100 mole %
Peptide text beside a SMILES is read from it. * marks the point of attachment. Cholyl = C[C@H](CCC(=O)*)[C@H]1CC[C@H]2[C@@H]3[C@H](O)C[C@@H]4C[C@H](O)CC[C@]4(C)[C@H]3C[C@H](O)[C@]12C
endpointName: Fold Increase in Lag Time (fold)
Just the number in fold, nothing appended.

>  <compound>
CC(C)C[C@H](NC(=O)[C@H](CCCCN)NC(=O)CCCC[C@@H]1SC[C@@H]2NC(=N)N[C@@H]21)C(=O)N[C@H](C(=O)N[C@@H](Cc1ccccc1)C(=O)N[C@@H](Cc1ccccc1)C(=O)O)C(C)C [PPI-374, iminobiotinyl-Aβ16-20]

>  <dataValue>
1.3

$$$$

// query Fold Increase in Lag Time value for entry CC(C)C[C@H](NC(=O)[C@H](CCCCN)NC(=O)[C@H](CCC(N)=O)NC(=O)CC[C@@H](C)[C@H]1CC[C@H]2[C@@H]3[C@H](O)C[C@@H]4C[C@H](O)CC[C@]4(C)[C@H]3C[C@H](O)[C@]12C)C(=O)N[C@H](C(=O)N[C@@H](Cc1ccccc1)C(=O)O)C(C)C [PPI-366] (Cholyl-QKLVF-OH) 3.1

====

Target: Aβ1-40 (Homo sapiens, UniProt P05067)
Construct: (β-AP1-40) was obtained commercially from Bachem (Torrance, Calif.); purchased Bachem (Torrance, Calif.)
Assay: Nucleation assay (turbidity, A405 nm);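 further: synthetic Aβ monomer polymerization followed by turbidity in 96-well plates with continuous shaking, read every 15 minutes over 5 hours, compared against wells lacking test compound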
Assay type: biochemical
Details: Table V; 100 mole % inhibitor; read-out: % Inucl'n (percent reduction in maximum observed turbidity)
Peptide text beside a SMILES is read from it. * marks the point of attachment. Cholyl = C[C@H](CCC(=O)*)[C@H]1CC[C@H]2[C@@H]3[C@H](O)C[C@@H]4C[C@H](O)CC[C@]4(C)[C@H]3C[C@H](O)[C@]12C
# maps each entry to its inhibition at 100 mol %

Would you please look over these solved cases?
>  <compound>
CC(C)C[C@H](NC(=O)[C@H](CCCCN)NC(=O)CC[C@@H](C)[C@H]1CC[C@H]2[C@@H]3[C@H](O)C[C@@H]4C[C@H](O)CC[C@]4(C)[C@H]3C[C@H](O)[C@]12C)C(=O)N[C@H](C(=O)N[C@@H](Cc1ccccc1)C(=O)N[C@@H](Cc1ccccc1)C(=O)O)[C@@H](C)O [PPI-369] (Cholyl-KLTFF-OH)

>  <dataValue>
-16%

$$$$
>  <compound>
C[C@H](CCC(=O)N[C@@H](Cc1c[nH]cn1)C(=O)N[C@@H](CC(=O)O)C(=O)N[C@@H](CO)C(=O)NCC(=O)N[C@@H](Cc1ccc(O)cc1)C(N)=O)[C@H]1CC[C@H]2[C@@H]3[C@H](O)C[C@@H]4C[C@H](O)CC[C@]4(C)[C@H]3C[C@H](O)[C@]12C [PPI-339] (Cholyl-HDSGY-NH2)

>  <dataValue>
-18%

$$$$

// query inhibition at 100 mol % value for entry CC(C)C[C@H](NC(=O)[C@H](CCCCN)NC(=O)CCCC[C@@H]1SC[C@@H]2NC(=N)N[C@@H]21)C(=O)N[C@H](C(=O)N[C@@H](Cc1ccccc1)C(=O)N[C@@H](Cc1ccccc1)C(=O)O)C(C)C 86%
